Experiment: Quantitative highthroughput screen to assess conditional lethalithy of P12 Ichikawa cells grown in RPMI1640 with dialyzed fetal bovine serum (RPMI+ds) (AID 1963880); further: nearly all actives have a fitted effect of over 35% in size; further: potency means the concentration at half of the fitted maximal effect
Conditions: ATP luminescence, 48 h; P12-Ichikawa viability; series mostly up to 45.8 µM
Results filed as inconclusive are left out. Activity calls are given as the source filed them. The call rests on the fitted dose curve; in most records, active means well fitted cell-killing curve with a large enough effect; inconclusive means small, poorly fitted or top-dose-only effect; inactive means flat fitted curve, though single readings scatter.
parameter: Potency

Known results for compounds:
Cc1ccc(C(C)(O)c2nc3ccccc3s2)c(C)c1 (stereo not drawn) :: 18.7 µM (active)
NC(=O)c1cccc(N)c1 :: inactive
CNc1nccc(-c2cccnc2Oc2cc(C(=O)Nc3cccc(C(F)(F)F)c3)ccc2C)n1 :: inactive
Cc1nc(NC(=O)N2CCC[C@@H]2C(N)=O)sc1-c1csc(C(C)(C)C)n1 :: 2.35 µM (active)
CC(C)Oc1ccc2c(=O)c(-c3ccccc3)coc2c1 :: inactive
OC[C@H]1O[C@@H](n2cnc3c2NC=NC[C@@H]3O)C[C@H]1O :: inactive
COc1ccccc1OCCNCC(O)COc1cccc2[nH]c3ccccc3c12 (stereo not drawn) :: inactive
CC1(C)CC(O)CC(C)(C)N1[O] :: inactive
Cc1ccccc1C(=O)Nc1ccc(C(=O)N2CCCC(O)c3cc(Cl)ccc32)c(C)c1 (stereo not drawn) :: inactive
C=CC[C@@H]1C=C(C)C[C@H](C)C[C@H](OC)[C@H]2O[C@@](O)(C(=O)C(=O)N3CCCC[C@H]3C(=O)O[C@H](C(C)=C[C@@H]3CC[C@H](O)[C@H](OC)C3)[C@@H](C)[C@@H](O)CC1=O)[C@@H](C)C[C@@H]2OC :: 6.62 µM (active)

Below are some compounds; for each one, tell me its Potency.
1. O=C(c1cc(Cc2n[nH]c(=O)c3ccccc23)ccc1F)N1CCN(C(=O)C2CC2)CC1
2. Cc1ccccc1C(C(=O)NC1CCCC1)N(C(=O)Cn1cnc2ccccc21)c1cccc(F)c1 (stereo not drawn)

1: 20.9 µM (active); 2: inactive

====

Assay: Cellular viability qHTS for adrenocortical cancer (ACC) cell line SW-13 (AID 1963989); further: potency means the concentration at half of the fitted maximal effect; nearly all actives have a fitted effect of over 65% in size
Settings: SW-13 ACC cells viability, CellTiter-Glo, 48 h
Inconclusive results are not listed. Active and inactive are the calls of the source. The call rests on the fitted dose curve; in most records, active means well fitted cell-killing curve with a large enough effect; inconclusive means small, poorly fitted or top-dose-only effect; inactive means flat fitted curve, though single readings scatter.
Provide the reported Potency of each item.

Cc1cccc(Nc2nc(N[C@@H]3CCCC[C@H]3N)ncc2C(N)=O)c1 :: 25.1 µM (active)
Cc1ccc(S(=O)(=O)Nc2cc(C(F)(F)F)ccc2C(=O)Nc2nc(-c3ccccc3)cs2)cc1 :: 2.24 µM (active)
NC(N)=NN=C(/C=C/c1ccc([N+](=O)[O-])o1)/C=C/c1ccc([N+](=O)[O-])o1 :: 2.59 µM (active)
CCN(CC)CCOc1ccc(Nc2ncc3cc(-c4c(Cl)cccc4Cl)c(=O)n(C)c3n2)cc1 :: 1 µM (active)
CC(=O)N(O)CCCCCNC(=O)CCC(=O)N(O)CCCCCNC(=O)CCC(=O)N(O)CCCCCN :: 28.2 µM (active)
COc1cc(Nc2ncc3c(n2)-c2ccc(Cl)cc2C(c2c(F)cccc2OC)=NC3)ccc1C(=O)O :: 31.6 µM (active)

Below are some compounds; for each one, tell me its Potency.
1. Cc1c(-c2c(-c3ccc(F)o3)sc3ncnc(O[C@@H](Cc4ccccc4OCc4ccnn4CC(F)(F)F)C(=O)O)c23)ccc(OCCN2CCN(C)CC2)c1Cl
2. O=C(CCCCCCC(=O)N/N=C/c1ccc(N(c2ccccc2)c2ccccc2)cc1)NO

0.199 µM (active)
28.2 µM (active)
